Data provenance: ChEMBL document CHEMBL1124016

Entries and their log10 of IC50
Target: Serotonin 2 (5-HT2) receptor (Rattus norvegicus, UniProt P30994+P08909+P14842)
Assay: Inhibition of [3H]spiperone binding to 5-hydroxytryptamine 2 receptor from rat cortical membranes
Format: cell membranes, Membrane
Reminder: these figures are log10 of reported IC50, in nM before transformation.

The cases that follow already have their log10 of IC50 on record.
CN1CCN(CCN2CCN([C@@H]3C[C@@H](c4ccc(F)cc4)c4ccc(F)cc43)CC2)C1=O: 1.00
CN1CCN(CCN2CCN([C@H]3C[C@H](c4ccc(F)cc4)c4ccc(F)cc43)CC2)C1=O: 2.61
CN1CCN([C@H]2C[C@H](c3ccc(F)cc3)c3ccc(F)cc32)CC1: 1.63
Cl.Cl.O=C1CCCN1CCN1CCN(C2CC(c3ccc(F)cc3)c3ccc(F)cc32)CC1 (stereo not drawn): 1.08
COc1ccc(C2CC(N3CCN(CCN4CCNC4=O)CC3)c3ccccc32)cc1 (stereo not drawn): 2.40
Cl.Cl.OC1=NCCN1CCN1CCN(C2CC(c3ccc(Cl)cc3)c3ccccc32)CC1 (stereo not drawn): 1.57

Incoming: // returns reported log10 of IC50 for input CCN1CCN(CCN2CCN(C3CC(c4ccc(F)cc4)c4ccc(F)cc43)CC2)C1=O.Cl.Cl (stereo not drawn)
Outgoing: 0.68

Incoming: Field request: log10 of IC50 | item: O=C1NCCN1CCN1CCN([C@@H]2C[C@@H](c3ccc(F)cc3)c3ccccc32)CC1 (stereo in doubt; (+)2) [IRINDALONE]
Outgoing: 0.53

Incoming: Query: log10 of IC50; subject: Cl.Cl.O.O=C1OCCN1CCN1CCN(C2CC(c3ccc(F)cc3)c3ccc(F)cc32)CC1 (stereo not drawn)
Outgoing: 1.64
